assay: Displacement of [3H]AMPAKINE from AMPA receptor in rat forebrain
This section presents compounds with their documented pKi values.
By convention, pKi is the negative base-10 log of a molar concentration.

# count of solved cases: 5
COMPOUND | MEASURED_QUANTITY | RESULT_NUMBER
O=C1c2cc3c(cc2OCN1CCF)C(=O)N1CCCC1O3 (stereo unspecified) | pKi | 4.48
O=C1c2cc3c(cc2OCN1C1CC1)C(=O)N1CCCC1O3 (stereo unspecified) | pKi | 4.59
CCN1COc2cc3c(cc2C1=O)OC1CCCN1C3=O (stereo unspecified) | pKi | 4.70
O=C1c2cc3c(cc2OCN1C1CCCC1)C(=O)N1CCCC1O3 (stereo unspecified) | pKi | 3.79
CN1COc2cc3c(cc2C1=O)OC1CCCN1C3=O (stereo unspecified) | pKi | 4.74

Measured pKi of C=CCN1COc2cc3c(cc2C1=O)OC1CCCN1C3=O (stereo unspecified) : 4.74

Measured pKi of O=C1NCOc2cc3c(cc21)OC1CCCN1C3=O (stereo unspecified) : 3.65

Measured pKi of O=C1c2cc3c(cc2OCN1CC(F)(F)F)C(=O)N1CCCC1O3 (stereo unspecified) : 3.48

Measured pKi of C#CCN1COc2cc3c(cc2C1=O)OC1CCCN1C3=O (stereo unspecified) : 5.15

Measured pKi of CCCN1COc2cc3c(cc2C1=O)OC1CCCN1C3=O (stereo unspecified) : 4.15

Measured pKi of CC(C)N1COc2cc3c(cc2C1=O)OC1CCCN1C3=O (stereo unspecified) : 4.00

----------
This section presents compounds with their documented Activity values.
organism: Rattus norvegicus; assay: Positive allosteric modulation at AMPA receptor in Sprague-Dawley rat adult hippocampal slice assessed as increase in field excitatory postsynaptic potential amplitude at 10 uM; format: tissue-based; details: Hippocampus
Give just the numeric value; % need not be written.

# count of solved cases: 4
COMPOUND | Activity (%)
CCN1COc2cc3c(cc2C1=O)OC1CCCN1C3=O (stereo not given) | 17
CC(C)N1COc2cc3c(cc2C1=O)OC1CCCN1C3=O (stereo not given) | 3
O=C1c2cc3c(cc2OCN1CCF)C(=O)N1CCCC1O3 (stereo not given) | 9
O=C1c2cc3c(cc2OCN1C1CC1)C(=O)N1CCCC1O3 (stereo not given) | 10

Measured Activity of CN1COc2cc3c(cc2C1=O)OC1CCCN1C3=O (stereo not given) : 19

----------
species on record: Rattus norvegicus; experiment: Positive allosteric modulation at AMPA receptor in Sprague-Dawley rat embryonic hippocampal neuron assessed as concentration required to double the steady-state current induced by glutamate by patch-clamp assay; format: tissue-based; conditions: Hippocampus
MEASURED_QUANTITY: Activity

# count of solved cases: 5
COMPOUND | RESULT
O=C1c2cc3c(cc2OCN1CC(F)(F)F)C(=O)N1CCCC1O3 (stereo unspecified) | 8.8 µM
O=C1c2cc3c(cc2OC2CCCN12)OCCO3 (stereo unspecified) | 2.3 µM
O=C1NCOc2cc3c(cc21)OC1CCCN1C3=O (stereo unspecified) | 5 µM
O=C1c2cc3c(cc2OC2CCCN12)OCOC3 (stereo unspecified) | 22 µM
C=CCN1COc2cc3c(cc2C1=O)OC1CCCN1C3=O (stereo unspecified) | 0.5 µM

Measured Activity of O=C1c2cc3c(cc2OC2CCCN12)C(=O)N1CCCC1O3 (stereo unspecified) : 0.06 µM

Measured Activity of "COc1ccc(C(=O)N2CCCC2=O)cc1" : > 1000 µM

Measured Activity of O=C1c2cc3c(cc2OC2CCCN12)OC1CCCN1C3=O (stereo unspecified) : 2.6 µM

Measured Activity of NS(=O)(=O)c1cc2c(cc1Cl)NC(C1CC3C=CC1C3)NS2(=O)=O (stereo unspecified) : 1.6 µM
